# Assay Text: Inhibition of CCR5 by cell-cell fusion inhibition assay
pIC50: −log10 of the molar value.
Assay Endpoint: pIC50

Some compounds with known pIC50 results, for comparison:
INSERT INTO measurements (compound, assay_endpoint, test_result) VALUES
  ('CCC(=O)N1CCC(C(CCN2C[C@@H]3CN(C(=O)c4c(C)ncnc4C)C[C@@H]3C2)c2ccccc2)CC1 (stereo partly specified)', 'pIC50', '< 5.30'),
  ('Cc1ncnc(C)c1C(=O)N1C[C@H]2CN(CCC(c3ccccc3)C3CN(C(=O)CC(C)C)C3)C[C@H]2C1 (stereo partly specified)', 'pIC50', '< 5.30'),
  ('Cc1ncnc(C)c1C(=O)N1C[C@H]2CN(CCC(c3ccccc3)C3CN(CC(F)(F)F)C3)C[C@H]2C1 (stereo partly specified)', 'pIC50', '< 5.30');

query: Which value of pIC50 has been reported for Cc1ncnc(C)c1C(=O)N1C[C@H]2CN(CCC(c3cc(F)cc(F)c3)C3CN(S(=O)(=O)C4CC4)C3)C[C@H]2C1 (stereo partly specified) in the records?
result: 7.20

query: Which value of pIC50 has been reported for Cc1ncnc(C)c1C(=O)N1C[C@H]2CN(CCC(c3ccccc3)C3CCN(C(=O)C(C)C)CC3)C[C@H]2C1 (stereo partly specified) in the records?
result: < 5.30

query: Which value of pIC50 has been reported for Cc1ncnc(C)c1C(=O)N1C[C@H]2CN(CCC(c3ccccc3)C3CCN(C(=O)NC(C)C)CC3)C[C@H]2C1 (stereo partly specified) in the records?
result: < 5.30
